TESTED_ON: AADAC (arylacetamide deacetylase) (Homo sapiens)
Sequence (P22760 whole entry): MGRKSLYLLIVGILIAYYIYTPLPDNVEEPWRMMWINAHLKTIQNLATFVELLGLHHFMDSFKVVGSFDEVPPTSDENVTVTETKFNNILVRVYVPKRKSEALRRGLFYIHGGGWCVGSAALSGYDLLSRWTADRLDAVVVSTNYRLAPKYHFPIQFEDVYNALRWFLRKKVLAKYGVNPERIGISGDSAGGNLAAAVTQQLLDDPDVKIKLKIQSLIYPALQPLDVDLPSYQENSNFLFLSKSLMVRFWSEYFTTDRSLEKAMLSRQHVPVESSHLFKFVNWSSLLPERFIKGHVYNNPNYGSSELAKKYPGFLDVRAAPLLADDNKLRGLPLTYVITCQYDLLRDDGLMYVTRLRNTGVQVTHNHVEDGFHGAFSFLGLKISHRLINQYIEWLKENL
MEASUREMENT_PROTOCOL: Drug metabolism assessed as AADAC-mediated compound hydrolysis in human liver homogenates at 200 uM
Type: ADME, tissue-based
TEST_PARAMETERS: read-out: Drug metabolism
QUANTITY_NAME: metabolised at 200 µM (%)
Record the value in %, omitting the unit from your answer.

Return reported metabolised at 200 µM; argument: CC(C)C(=O)Nc1ccc([N+](=O)[O-])c(C(F)(F)F)c1 [FLUTAMIDE]
89.4

====

TESTED_ON: CES2 (cocaine esterase) (Homo sapiens, UniProt O00748)
Sequence (O00748 whole entry): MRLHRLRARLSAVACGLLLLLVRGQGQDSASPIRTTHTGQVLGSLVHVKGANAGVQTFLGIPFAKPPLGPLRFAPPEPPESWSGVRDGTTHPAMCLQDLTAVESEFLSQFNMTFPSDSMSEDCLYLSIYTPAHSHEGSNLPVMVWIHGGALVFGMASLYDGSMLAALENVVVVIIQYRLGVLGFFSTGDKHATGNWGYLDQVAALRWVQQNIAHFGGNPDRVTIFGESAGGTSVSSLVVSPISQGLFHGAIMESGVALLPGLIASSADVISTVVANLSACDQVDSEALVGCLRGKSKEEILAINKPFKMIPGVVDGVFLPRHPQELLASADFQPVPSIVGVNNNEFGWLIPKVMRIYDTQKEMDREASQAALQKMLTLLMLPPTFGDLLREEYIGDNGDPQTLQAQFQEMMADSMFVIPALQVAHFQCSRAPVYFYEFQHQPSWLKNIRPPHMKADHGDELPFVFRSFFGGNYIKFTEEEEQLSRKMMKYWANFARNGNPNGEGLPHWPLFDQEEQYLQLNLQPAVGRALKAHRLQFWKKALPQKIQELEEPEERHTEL
MEASUREMENT_PROTOCOL: Drug metabolism assessed as CES2-mediated compound hydrolysis in human liver homogenates at 200 uM
Format: ADME, tissue-based
TEST_PARAMETERS: read-out: Drug metabolism
QUANTITY_NAME: metabolised at 200 µM (%)
Record the value in %, omitting the unit from your answer.

Return reported metabolised at 200 µM; argument: CC(C)C(=O)Nc1ccc([N+](=O)[O-])c(C(F)(F)F)c1 [FLUTAMIDE]
10.6

Just for reference, ChEMBL document CHEMBL3526158 is where these values come from.
